- Target of assay: T1, CRBN, Q96SW2;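 also: pooled lentiviral library of zinc finger degron-EGFP fusions in mCherry-positive Jurkat cells, FACS-sorted after compound exposure, with degron abundance counted by next-generation sequencing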
- T1 chain: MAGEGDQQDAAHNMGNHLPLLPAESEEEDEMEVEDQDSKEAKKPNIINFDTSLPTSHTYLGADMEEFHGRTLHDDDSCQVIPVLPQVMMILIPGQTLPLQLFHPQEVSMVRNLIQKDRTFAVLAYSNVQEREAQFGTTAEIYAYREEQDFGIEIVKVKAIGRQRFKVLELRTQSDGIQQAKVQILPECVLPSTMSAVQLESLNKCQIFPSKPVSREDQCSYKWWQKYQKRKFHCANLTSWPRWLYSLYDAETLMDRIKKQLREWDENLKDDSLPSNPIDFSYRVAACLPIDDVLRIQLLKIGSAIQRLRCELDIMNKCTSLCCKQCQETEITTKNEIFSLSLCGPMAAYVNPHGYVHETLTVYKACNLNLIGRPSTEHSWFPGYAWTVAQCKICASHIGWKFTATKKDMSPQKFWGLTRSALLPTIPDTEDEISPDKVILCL
- Test method notes: log2 fold change of degron read counts, EGFP-low vs EGFP+ sorted cells (limma voom), compound-induced degradation; higher = more compound-induced degradation of the degron-EGFP fusion; degrons are variants of IKZF1/3 zinc finger 2; compound dose not given here
- Conditions used: Jurkat; 18 h; compound: compound 19 (5-tert-butyl-thalidomide)
Whole data set: some 8,300 sequences, median “log2 fold change of degron read counts, EGFP-low vs EGFP+ sorted cells (limma voom), compound-induced degradation” near -1.1, cut for the highest 2% near 3.2. Shown is part of a subset that was picked to be rich in the highest values.
Listed here: items and their measured log2 fold change of degron read counts.
// no unit, no text: just the number

Below: 5 sequences and their reported log2 fold change of degron read counts.
{"Seq text": "FLCPVCGAAFTQKGNLLRHIKL [46F_47L_49P_50V_52G_53A_54A_55F_67L_, Q9UKT9]", "Test value": 0.86}
{"Seq text": "FICNVCGAQFTQKGNLLRHIKL [46F_47I_49N_50V_52G_53A_54Q_55F_67L_, Q9UKT9]", "Test value": -1.95}
{"Seq text": "LGCPICGFRCTQKGNLLRHIKL [46L_47G_49P_50I_52G_53F_54R_55C_67L_, Q9UKT9]", "Test value": 3.17}
{"Seq text": "FCCDICGANFTQKGNLLRHIKL [46F_47C_49D_50I_52G_53A_54N_55F_67L_, Q9UKT9]", "Test value": 0.761}
{"Seq text": "FECEVCGASFTQKGNLLRHIKL [46F_47E_49E_50V_52G_53A_54S_55F_67L_, Q9UKT9]", "Test value": 2.09}

Reported log2 fold change of degron read counts ( FKCEVCGASFTQKGNLLRHIKL [46F_47K_49E_50V_52G_53A_54S_55F_67L_, Q9UKT9] ) = 1.43

Reported log2 fold change of degron read counts ( FMCDVCGACFTQKGNLLRHIKL [46F_47M_49D_50V_52G_53A_54C_55F_67L_, Q9UKT9] ) = -1.81

Reported log2 fold change of degron read counts ( FYCDVCGAAFTQKGNLLRHIKL [46F_47Y_49D_50V_52G_53A_54A_55F_67L_, Q9UKT9] ) = 2.59

Reported log2 fold change of degron read counts ( FYCPVCGACFTQKGNLLRHIKL [46F_47Y_49P_50V_52G_53A_54C_55F_67L_, Q9UKT9] ) = 3.26

Reported log2 fold change of degron read counts ( FGCPICGHWFTQKGNLLRHIKL [46F_47G_49P_50I_52G_53H_54W_55F_67L_, Q9UKT9] ) = -1.35

Reported log2 fold change of degron read counts ( FHCDICGANFTQKGNLLRHIKL [46F_47H_49D_50I_52G_53A_54N_55F_67L_, Q9UKT9] ) = -0.867

Reported log2 fold change of degron read counts ( FQCPQCGACFTQKGNLLRHIKL [46F_47Q_49P_50Q_52G_53A_54C_55F_67L_, Q9UKT9] ) = -1.4

Reported log2 fold change of degron read counts ( FACPVCGAAFTQKGNLLRHIKL [46F_47A_49P_50V_52G_53A_54A_55F_67L_, Q9UKT9] ) = 3.6

Reported log2 fold change of degron read counts ( LGCNQCGFSCTQKGNLLRHIKL [46L_47G_49N_50Q_52G_53F_54S_55C_67L_, Q9UKT9] ) = -1.87

Reported log2 fold change of degron read counts ( FTCEVCGASFTQKGNLLRHIKL [46F_47T_49E_50V_52G_53A_54S_55F_67L_, Q9UKT9] ) = 2.27

Reported log2 fold change of degron read counts ( LACPICGFNCTQKGNLLRHIKL [46L_47A_49P_50I_52G_53F_54N_55C_67L_, Q9UKT9] ) = 2.23

Reported log2 fold change of degron read counts ( FKCNVCGANFTQKGNLLRHIKL [46F_47K_49N_50V_52G_53A_54N_55F_67L_, Q9UKT9] ) = -2.45

Reported log2 fold change of degron read counts ( FCCEVCGASFTQKGNLLRHIKL [46F_47C_49E_50V_52G_53A_54S_55F_67L_, Q9UKT9] ) = 3.45

Reported log2 fold change of degron read counts ( FWCEVCGASFTQKGNLLRHIKL [46F_47W_49E_50V_52G_53A_54S_55F_67L_, Q9UKT9] ) = 3.77

Reported log2 fold change of degron read counts ( FRCPVCGAAFTQKGNLLRHIKL [46F_47R_49P_50V_52G_53A_54A_55F_67L_, Q9UKT9] ) = 2.21

Reported log2 fold change of degron read counts ( FLCPVCGACFTQKGNLLRHIKL [46F_47L_49P_50V_52G_53A_54C_55F_67L_, Q9UKT9] ) = 0.241

Reported log2 fold change of degron read counts ( FVCDVCGAAFTQKGNLLRHIKL [46F_47V_49D_50V_52G_53A_54A_55F_67L_, Q9UKT9] ) = -0.53

Reported log2 fold change of degron read counts ( FCCNQCGRTFTQKGNLLRHIKL [46F_47C_49N_50Q_52G_53R_54T_55F_67L_, Q9UKT9] ) = -2.96

Reported log2 fold change of degron read counts ( FCCNQCGREFTQKGNLLRHIKL [46F_47C_49N_50Q_52G_53R_54E_55F_67L_, Q9UKT9] ) = -3.21

Reported log2 fold change of degron read counts ( FHCPVCGAFFTQKGNLLRHIKL [46F_47H_49P_50V_52G_53A_54F_55F_67L_, Q9UKT9] ) = 0.94

Reported log2 fold change of degron read counts ( FFCPQCGAHFTQKGNLLRHIKL [46F_47F_49P_50Q_52G_53A_54H_55F_67L_, Q9UKT9] ) = 0.0594

Reported log2 fold change of degron read counts ( FSCEVCGASFTQKGNLLRHIKL [46F_47S_49E_50V_52G_53A_54S_55F_67L_, Q9UKT9] ) = 3.58

Reported log2 fold change of degron read counts ( FVCPQCGACFTQKGNLLRHIKL [46F_47V_49P_50Q_52G_53A_54C_55F_67L_, Q9UKT9] ) = -1.94

Reported log2 fold change of degron read counts ( FRCNQCGHLFTQKGNLLRHIKL [46F_47R_49N_50Q_52G_53H_54L_55F_67L_, Q9UKT9] ) = -2.18
